Cited source for all entries: patent US10138227B2

Here the recorded EC50 is given for each entry.
biological target: CFTR ΔF508 mutant (Homo sapiens, UniProt P13569, DEL508-508); test: YFP-halide influx assay for the CFTR-ΔF508 mutation; details: CFBE41o- cells expressing CFTR ΔF508 and YFP reporter; forskolin 10.67 μM; (1-F/F0) vs concentration
Sequence (P13569 with tags, fused parts or gaps DEL508-508): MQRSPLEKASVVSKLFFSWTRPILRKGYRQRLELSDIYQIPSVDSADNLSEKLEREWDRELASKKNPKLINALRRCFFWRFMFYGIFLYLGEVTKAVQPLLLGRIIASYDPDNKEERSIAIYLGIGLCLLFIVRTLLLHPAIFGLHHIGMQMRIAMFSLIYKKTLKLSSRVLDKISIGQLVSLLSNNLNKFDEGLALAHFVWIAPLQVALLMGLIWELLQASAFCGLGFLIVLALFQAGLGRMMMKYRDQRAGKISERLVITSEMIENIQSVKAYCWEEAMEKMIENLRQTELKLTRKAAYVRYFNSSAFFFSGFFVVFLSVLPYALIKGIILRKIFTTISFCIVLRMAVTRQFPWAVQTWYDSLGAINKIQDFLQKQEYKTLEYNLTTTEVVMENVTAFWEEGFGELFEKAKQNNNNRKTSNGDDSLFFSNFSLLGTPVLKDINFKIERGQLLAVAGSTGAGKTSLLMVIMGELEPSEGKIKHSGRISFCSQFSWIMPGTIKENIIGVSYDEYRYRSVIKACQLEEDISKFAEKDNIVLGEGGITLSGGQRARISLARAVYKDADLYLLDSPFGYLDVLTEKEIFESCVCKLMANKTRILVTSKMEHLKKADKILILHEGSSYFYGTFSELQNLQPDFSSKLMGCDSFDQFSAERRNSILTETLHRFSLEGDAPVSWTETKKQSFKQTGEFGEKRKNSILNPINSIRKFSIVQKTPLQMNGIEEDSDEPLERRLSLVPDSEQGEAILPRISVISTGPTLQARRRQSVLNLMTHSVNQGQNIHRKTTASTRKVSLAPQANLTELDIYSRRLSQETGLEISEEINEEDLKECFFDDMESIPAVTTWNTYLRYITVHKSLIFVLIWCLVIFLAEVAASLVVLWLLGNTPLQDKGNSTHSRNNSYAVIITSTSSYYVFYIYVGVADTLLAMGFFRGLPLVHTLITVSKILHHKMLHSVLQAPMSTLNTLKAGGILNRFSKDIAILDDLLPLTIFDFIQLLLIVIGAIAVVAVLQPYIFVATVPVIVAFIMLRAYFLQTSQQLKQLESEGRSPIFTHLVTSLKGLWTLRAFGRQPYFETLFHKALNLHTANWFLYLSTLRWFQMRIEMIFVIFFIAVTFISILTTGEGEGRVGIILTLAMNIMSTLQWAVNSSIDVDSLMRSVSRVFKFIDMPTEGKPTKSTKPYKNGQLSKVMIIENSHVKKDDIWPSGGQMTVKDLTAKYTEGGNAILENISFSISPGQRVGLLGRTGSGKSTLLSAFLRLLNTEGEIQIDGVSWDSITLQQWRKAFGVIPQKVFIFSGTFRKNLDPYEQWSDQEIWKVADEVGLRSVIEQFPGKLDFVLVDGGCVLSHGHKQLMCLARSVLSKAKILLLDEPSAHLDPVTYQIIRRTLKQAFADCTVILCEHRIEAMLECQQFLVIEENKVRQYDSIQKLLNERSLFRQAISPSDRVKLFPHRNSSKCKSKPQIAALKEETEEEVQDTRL
Answer format: numeric, nM implied, no suffix.

Compound | Property | Data Value
CO[C@@H](c1ccccc1)c1nnc(-c2ncc(S(=O)(=O)c3ccc(OC(F)(F)F)cc3)cc2N)s1 [Compound 19] | EC50 | 350
CO[C@@H](C)c1nnc(-c2ncc(S(=O)(=O)c3ccc(OC(F)(F)F)cc3)cc2N)s1 [Compound 23] | EC50 | 37.1

Shifting focus to the compound that follows.
Quote EC50 with test system CFTR ΔF508 mutant (Homo sapiens, UniProt P13569, DEL508-508) for Nc1cc(S(=O)(=O)c2ccc(OC(F)(F)F)cc2)cnc1-c1nnc(COCC2CC2)s1 [Compound 24]
13.7

====

Molecular target: CFTR ΔF508 (Homo sapiens, UniProt P13569, DEL508-508)
Construct: bronchial epithelial cells isolated from CF patients homozygous for the CFTR ΔF508 mutation
Assay: TECC assay in CFTR ΔF508, primary bronchial epithelial cells
Conditions: bronchial epithelial cells from CF patients homozygous for ΔF508, treated with 3 μM VX809 or 0.15 μM GLPG2222; increase in Isc after forskolin
Protocol: The TECC (Transepithelial Clamp Circuit, EP-design) assay measures the functionality of the cystic fibrosis Transmembrane Conductance regulator (CFTR) by measuring the short circuit current (ISC) generated over the basolateral and apical membrane of lung epithelial cells. In TECC the transepithelial potential PD and transepithelial resistance (Rt) are measured in an open circuit and transformed to ISC using Ohm's law. […]
Readings of EC50 for the listed compounds
Dear colleague, please return just the value in nM, with no unit written.

Compound | Data Value
Nc1cc(S(=O)(=O)c2ccc(OC(F)(F)F)cc2)cnc1-c1nnc(CO)o1 | 40

Shifting focus to the compound that follows.
Check the records and state EC50 for Nc1cc(S(=O)(=O)c2ccc(OC(F)(F)F)cc2)cnc1-c1nnc(C(O)C(F)(F)F)o1 (centres unmarked)
6

====

The reader will find reported % Activation values listed item by item below.
molecular target: CFTR ΔF508 mutant (Homo sapiens, UniProt P13569, DEL508-508); construct: expressed in transfected cells; host or cells: CFBE41o- cells transduced with adenoviral vectors; test: YFP-halide influx assay for the CFTR-ΔF508 mutation; assay type: cell-based; conditions: CFBE41o- cells expressing CFTR ΔF508 and YFP reporter; forskolin 10.67 μM

Return % Activation for the following compound: COC(C)c1nnc(-c2ncc(S(=O)(=O)c3ccc(OC(F)(F)F)cc3)cc2N)s1 (stereo not shown)
112.9%

Give reported % Activation value for `Nc1cc(S(=O)(=O)c2ccc(OC(F)(F)F)cc2)cnc1-c1nnc(COCC2CC2)o1`
100.38%

Specify reported % Activation for the compound shown: `COCCc1noc(-c2ncc(S(=O)(=O)c3ccc(OC(F)(F)F)cc3)cc2N)n1`
2.76%

Give me measured % Activation, please, for this compound: `Nc1cc(S(=O)(=O)c2cccc(OC(F)(F)F)c2)cnc1-c1nnc(CO)o1`
104.91%

Could you please provide reported % Activation for Nc1cc(S(=O)(=O)c2ccc(OC(F)(F)F)cc2)cnc1-c1nc(C2CCOC2)no1 (stereo not shown) ? Thanks!
15.28%

Specify reported % Activation for the compound shown: `Nc1cc(S(=O)(=O)c2ccc(OC(F)(F)F)cc2)cnc1-c1nnco1`
86.03%

Find the measured % Activation of `Nc1cc(S(=O)(=O)c2ccc(OC(F)(F)F)cc2)cnc1-c1nc(CC2CC2)no1` and report it.
45.59%

Consider the compound `COC(C)(C)c1noc(-c2ncc(S(=O)(=O)c3ccc(OC(F)(F)F)cc3)cc2N)n1` . State its measured % Activation.
82.3%
